meta.source: patent US20230340012A1

- Test system: OVCAR3
- Test Name: MTT assay, ovary (OVCAR3)
- Format: cell-based, human
- Run Conditions: MTT
Item-by-item account of IC50 of ovary (OVCAR3)
Measure: IC50 of ovary (OVCAR3) (µg/mL)

- Compound: "CC=C(C)C(=O)OCC1(C)C(OC(=O)C(C)=CC)CCC2(C)C1CCC1(C)C2CC=C2C3CC(C)(C)C(OC(=O)C(C)=CC)C(O)C3(CO)C(O)CC21C (stereo not drawn)"
  Measure: "IC50 of ovary (OVCAR3)"
  Numeric Value: 27
- Compound: "CC=C(C)C(=O)OCC1(C)C(O)CCC2(C)C1CCC1(C)C2CC=C2C3CC(C)(C)C(OC(=O)C(C)=CC)C(O)C3(COC(=O)C(C)=CC)C(O)CC21C (stereo not drawn)"
  Measure: "IC50 of ovary (OVCAR3)"
  Numeric Value: 9
- Compound: "CC=C(C)C(=O)OCC1(C)C(O)CCC2(C)C1CCC1(C)C2CC=C2C3CC(C)(C)C(O)C(OC(=O)C(C)=CC)C3(COC(=O)C(C)=CC)C(O)CC21C (stereo not drawn)"
  Measure: "IC50 of ovary (OVCAR3)"
  Numeric Value: 25

* * *

- System: K562
- Test Name: MTT assay, leukemia (K562)
- Type: cell-based, human
- Method: Cells. HTB-9 (bladder), HeLa-S3 (cervix), DU145 (prostate), H460 (lung), MCF-7 (breast), K562 (leukemia), HCT116 (colon), HepG2 (liver), U2OS (bone), T98G (brain), SK-MEL-5 (Skin) and OVCAR 3, ES2 (ovary), Pancreas (Capan), Mouth (KB), Kidney(A498). MTT Assay. […] The formazan (product of the reduction of tetrazolium by viable cells) formed and was dissolved with DMSO and the O.D. at 490 nm, and was measured by an ELISA reader. The MTT level of the cells before drug-treatment was also measured (T0). […]

- Compound: "CC=C(C)C(=O)OCC1(C)C(OC(=O)C(C)=CC)CCC2(C)C1CCC1(C)C2CC=C2C3CC(C)(C)C(OC(=O)C(C)=CC)C(O)C3(CO)C(O)CC21C (stereo not drawn)"
  IC50 of leukemia (K562) / µg/mL: 10
- Compound: "CC=C(C)C(=O)OCC1(C)C(O)CCC2(C)C1CCC1(C)C2CC=C2C3CC(C)(C)C(O)C(O)C3(CO)C(O)CC21C (stereo not drawn)"
  IC50 of leukemia (K562) / µg/mL: 6
- Compound: "CC=C(C)C(=O)OCC1(C)C(O)CCC2(C)C1CCC1(C)C2CC=C2C3CC(C)(C)C(O)C(OC(=O)C(C)=CC)C3(CO)C(O)CC21C (stereo not drawn)"
  IC50 of leukemia (K562) / µg/mL: 6
- Compound: "CC=C(C)C(=O)OCC1(C)C(O)CCC2(C)C1CCC1(C)C2CC=C2C3CC(C)(C)C(OC(=O)C(C)=CC)C(O)C3(COC(=O)C(C)=CC)C(O)CC21C (stereo not drawn)"
  IC50 of leukemia (K562) / µg/mL: 4
- Compound: "CC=C(C)C(=O)OCC1(C)C(O)CCC2(C)C1CCC1(C)C2CC=C2C3CC(C)(C)C(O)C(OC(=O)C(C)=CC)C3(COC(=O)C(C)=CC)C(O)CC21C (stereo not drawn)"
  IC50 of leukemia (K562) / µg/mL: 9
- Compound: "CC=C(C)C(=O)OCC1(C)C(O)CCC2(C)C1CCC1(C)C2CC=C2C3CC(C)(C)C(OC(=O)C(C)=CC)C(O)C3(CO)C(O)CC21C (stereo not drawn)"
  IC50 of leukemia (K562) / µg/mL: 4.3

* * *

- System: cancer cells
- Test Name: MTT cytotoxic assay of esterification products (Cytotoxicity activity)
- Assay type: cell-based, human
- Run Conditions: E4A esterified with benzoyl chloride (Ben = benzoyl), compounds isolated with HPLC

- Compound: "CC1(C)CC2C3=CCC4C5(C)CCC(O)C(C)(COC(=O)c6ccccc6)C5CCC4(C)C3(C)CC(OC(=O)c3ccccc3)C2(COC(=O)c2ccccc2)C(OC(=O)c2ccccc2)C1OC(=O)c1ccccc1 (centres unmarked)"
  Cytotoxicity activity: "weak"
- Compound: "CC1(C)CC2C3=CCC4C5(C)CCC(O)C(C)(CO)C5CCC4(C)C3(C)CC(O)C2(COC(=O)c2ccccc2)C(OC(=O)c2ccccc2)C1OC(=O)c1ccccc1 (centres unmarked)"
  Cytotoxicity activity: "moderate"
- Compound: "CC1(C)CC2C3=CCC4C5(C)CCC(O)C(C)(CO)C5CCC4(C)C3(C)CC(O)C2(COC(=O)c2ccccc2)C(OC(=O)c2ccccc2)C1O (centres unmarked)"
  Cytotoxicity activity: "moderate"
- Compound: "CC1(C)CC2C3=CCC4C5(C)CCC(OC(=O)c6ccccc6)C(C)(COC(=O)c6ccccc6)C5CCC4(C)C3(C)CC(O)C2(CO)C(O)C1O (centres unmarked)"
  Cytotoxicity activity: "moderate"
- Compound: "CC1(C)CC2C3=CCC4C5(C)CCC(OC(=O)c6ccccc6)C(C)(COC(=O)c6ccccc6)C5CCC4(C)C3(C)CC(O)C2(COC(=O)c2ccccc2)C(OC(=O)c2ccccc2)C1OC(=O)c1ccccc1 (centres unmarked)"
  Cytotoxicity activity: "weak"
- Compound: "CC1(C)CC2C3=CCC4C5(C)CCC(O)C(C)(CO)C5CCC4(C)C3(C)CC(O)C2(CO)C(OC(=O)c2ccccc2)C1OC(=O)c1ccccc1 (centres unmarked)"
  Cytotoxicity activity: "moderate"
- Compound: "CC1(C)CC2C3=CCC4C5(C)CCC(O)C(C)(CO)C5CCC4(C)C3(C)CC(OC(=O)c3ccccc3)C2(CO)C(OC(=O)c2ccccc2)C1OC(=O)c1ccccc1 (centres unmarked)"
  Cytotoxicity activity: "moderate"
- Compound: "CC1(C)CC2C3=CCC4C5(C)CCC(OC(=O)c6ccccc6)C(C)(CO)C5CCC4(C)C3(C)CC(O)C2(COC(=O)c2ccccc2)C(O)C1O (centres unmarked)"
  Cytotoxicity activity: "moderate"
- Compound: "CC1(C)CC2C3=CCC4C5(C)CCC(OC(=O)c6ccccc6)C(C)(COC(=O)c6ccccc6)C5CCC4(C)C3(C)CC(OC(=O)c3ccccc3)C2(COC(=O)c2ccccc2)C(OC(=O)c2ccccc2)C1OC(=O)c1ccccc1 (centres unmarked)"
  Cytotoxicity activity: "none"
- Compound: "CC1(C)CC2C3=CCC4C5(C)CCC(OC(=O)c6ccccc6)C(C)(COC(=O)c6ccccc6)C5CCC4(C)C3(C)CC(OC(=O)c3ccccc3)C2(COC(=O)c2ccccc2)C(OC(=O)c2ccccc2)C1O (centres unmarked)"
  Cytotoxicity activity: "weak"
- Compound: "CC1(C)CC2C3=CCC4C5(C)CCC(O)C(C)(COC(=O)c6ccccc6)C5CCC4(C)C3(C)CC(OC(=O)c3ccccc3)C2(CO)C(O)C1O (centres unmarked)"
  Cytotoxicity activity: "moderate"

* * *

- System: cancer cells
- Test Name: MTT cytotoxic assay of esterification products (Cytotoxicity activity)
- Type: cell-based, human
- Run Conditions: E4A esterified with Cinnamoyl chloride (Cin = Cinnamoyl), compounds isolated with HPLC

- Molecule: "CC1(C)CC2C3=CCC4C5(C)CCC(O)C(C)(COC(=O)C=Cc6ccccc6)C5CCC4(C)C3(C)CC(O)C2(CO)C(OC(=O)C=Cc2ccccc2)C1O (centres unmarked)"
  Cytotoxicity activity: "moderate"
- Molecule: "CC1(C)CC2C3=CCC4C5(C)CCC(OC(=O)C=Cc6ccccc6)C(C)(COC(=O)C=Cc6ccccc6)C5CCC4(C)C3(C)CC(O)C2(CO)C(O)C1O (centres unmarked)"
  Cytotoxicity activity: "moderate"
- Molecule: "CC1(C)CC2C3=CCC4C5(C)CCC(OC(=O)C=Cc6ccccc6)C(C)(COC(=O)C=Cc6ccccc6)C5CCC4(C)C3(C)CC(O)C2(COC(=O)C=Cc2ccccc2)C(OC(=O)C=Cc2ccccc2)C1OC(=O)C=Cc1ccccc1 (centres unmarked)"
  Cytotoxicity activity: "weak"
- Molecule: "CC1(C)CC2C3=CCC4C5(C)CCC(O)C(C)(COC(=O)C=Cc6ccccc6)C5CCC4(C)C3(C)CC(O)C2(CO)C(O)C1O (centres unmarked)"
  Cytotoxicity activity: "moderate"
- Molecule: "CC1(C)CC2C3=CCC4C5(C)CCC(O)C(C)(CO)C5CCC4(C)C3(C)CC(O)C2(CO)C(OC(=O)C=Cc2ccccc2)C1OC(=O)C=Cc1ccccc1 (centres unmarked)"
  Cytotoxicity activity: "moderate"
- Molecule: "CC1(C)CC2C3=CCC4C5(C)CCC(OC(=O)C=Cc6ccccc6)C(C)(COC(=O)C=Cc6ccccc6)C5CCC4(C)C3(C)CC(OC(=O)C=Cc3ccccc3)C2(COC(=O)C=Cc2ccccc2)C(OC(=O)C=Cc2ccccc2)C1OC(=O)C=Cc1ccccc1 (centres unmarked)"
  Cytotoxicity activity: "none"
- Molecule: "CC1(C)CC2C3=CCC4C5(C)CCC(O)C(C)(COC(=O)C=Cc6ccccc6)C5CCC4(C)C3(C)CC(OC(=O)C=Cc3ccccc3)C2(CO)C(O)C1O (centres unmarked)"
  Cytotoxicity activity: "moderate"
- Molecule: "CC1(C)CC2C3=CCC4C5(C)CCC(O)C(C)(CO)C5CCC4(C)C3(C)CC(O)C2(COC(=O)C=Cc2ccccc2)C(O)C1OC(=O)C=Cc1ccccc1 (centres unmarked)"
  Cytotoxicity activity: "moderate"
- Molecule: "CC1(C)CC2C3=CCC4C5(C)CCC(O)C(C)(CO)C5CCC4(C)C3(C)CC(OC(=O)C=Cc3ccccc3)C2(COC(=O)C=Cc2ccccc2)C(O)C1O (centres unmarked)"
  Cytotoxicity activity: "moderate"
- Molecule: "CC1(C)CC2C3=CCC4C5(C)CCC(OC(=O)C=Cc6ccccc6)C(C)(COC(=O)C=Cc6ccccc6)C5CCC4(C)C3(C)CC(O)C2(COC(=O)C=Cc2ccccc2)C(OC(=O)C=Cc2ccccc2)C1O (centres unmarked)"
  Cytotoxicity activity: "weak"
